target.entity: recombinant IL4I1 (Homo sapiens (Human))
method.description: IL4I1 Enzymatic Assay (Amplex Red/HRP coupled H2O2 detection)
Format: biochemical
conditions: 1 nM IL4I1, 1 mM each Phe/Tyr/Trp, four-hour pre-incubation, 120 minutes reaction, top compound concentration of 10000 nM
outcome.measure: EC50 (nM)

Consider the reported EC50 for these compounds:
Enquiry: Supply measured EC50 of N#CC1(c2ccc(Cc3cc4ccccc4[nH]c3=O)cc2)CC1 [Example 98] in your reply.
Return: 1

Enquiry: Supply measured EC50 of O=c1[nH]c2ccccc2cc1Cc1nnc(Cc2cnccn2)o1 [Example 31] in your reply.
Return: 172

Enquiry: Supply measured EC50 of COc1ccc(C#N)cc1Cc1nnc(Cc2cc3ccccc3[nH]c2=O)o1 [Example 35] in your reply.
Return: 46.5

Enquiry: Supply measured EC50 of CCS(=O)(=O)Nc1ccc(Cc2cc3ccccc3[nH]c2=O)cn1 [Example 47] in your reply.
Return: 10.8

Enquiry: Supply measured EC50 of NS(=O)(=O)c1cccc(Cc2cc3cc(F)ccc3[nH]c2=O)c1 [Example 120] in your reply.
Return: 3.6

[1] O=c1[nH]c2ccccc2cc1Cc1ccc(C2CNC2)cc1 [Example 63]
[2] O=C(c1ccc(Cc2cc3ccccc3[nH]c2=O)cc1)N1CC(O)C1 [Example 1]
Enquiry: // which entry reports the smaller EC50, 1 or 2 ? Your answer should be the label of the entry you select.
Return: 1

====

target.entity: recombinant IL4I1 (Homo sapiens (Human))
method.description: IL4I1 Enzymatic Assay (Amplex Red/HRP coupled H2O2 detection)
conditions: 1 nM IL4I1, 1 mM each Phe/Tyr/Trp, four-hour pre-incubation, 120 minutes reaction, top compound concentration of 10000 nM
outcome.measure: EC50 (nM)

Enquiry: Supply measured EC50 of CC1(O)CN(c2ccc(Cc3cc4ccccc4[nH]c3=O)cn2)C(=O)O1 (racemic) in your reply.
Return: 29.1

[A] Cc1cc(Cc2cc3ccccc3[nH]c2=O)cnc1-c1cccc(F)c1
[B] CC(=O)NCc1ccc(Cc2cc3ccccc3[nH]c2=O)c(Cl)c1
Enquiry: // which entry reports the smaller EC50, A or B ? Your answer should be the label of the entry you select.
Return: A

[I] CC1CN(c2ccc(Cc3cc4cnccc4[nH]c3=O)cc2)C(=O)O1 (single isomer, unassigned) [Example 189]
[II] CC1(c2ccc(Cc3cc4ccccc4[nH]c3=O)cc2)CNC1
Enquiry: // which entry reports the smaller EC50, I or II ? Your answer should be the label of the entry you select.
Return: II
(II: 11.5 nM, I: 16.7 nM)

[I] O=c1[nH]c2ccccc2cc1Cc1ccc(OC2CCOCC2)nc1
[II] CC(C)(O)c1ccc(Cc2cc3ccccc3[nH]c2=O)cc1Cl
Enquiry: Please tell me which of the two, I or II , has the higher reported EC50 value. Your answer should be the label of the entry you select.
Return: I

====

target.entity: recombinant IL4I1 (Homo sapiens (Human))
method.description: IL4I1 Enzymatic Assay (Amplex Red/HRP coupled H2O2 detection)
conditions: 1 nM IL4I1, 1 mM each Phe/Tyr/Trp, four-hour pre-incubation, 120 minutes reaction, top compound concentration of 10000 nM
outcome.measure: EC50 (nM)

[A] CS(=O)(=O)NCc1ccc(Cc2cc3ccccc3[nH]c2=O)cc1 [Example 73]
[B] COc1cc(C#N)cc(Cc2cc3ccccc3[nH]c2=O)c1 [Example 133]
Enquiry: Please tell me which of the two, A or B , has the higher reported EC50 value. Your answer should be the label of the entry you select.
Return: A
(A: 6.4 nM, B: 2 nM)

[P] CC1(O)CN(C(=O)c2ccc(Cc3cc4ccccc4[nH]c3=O)cc2)C1 [compound 2]
[Q] Cn1ncc2cc(Cc3cc4ccccc4[nH]c3=O)ccc21 [Example 153]
Enquiry: // which entry reports the smaller EC50, P or Q ? Your answer should be the label of the entry you select.
Return: Q
(Q: 1.2 nM, P: 34.8 nM)

====

target.entity: recombinant IL4I1 (Homo sapiens (Human), UniProt Q96RQ9)
Sequence (Q96RQ9 22-567): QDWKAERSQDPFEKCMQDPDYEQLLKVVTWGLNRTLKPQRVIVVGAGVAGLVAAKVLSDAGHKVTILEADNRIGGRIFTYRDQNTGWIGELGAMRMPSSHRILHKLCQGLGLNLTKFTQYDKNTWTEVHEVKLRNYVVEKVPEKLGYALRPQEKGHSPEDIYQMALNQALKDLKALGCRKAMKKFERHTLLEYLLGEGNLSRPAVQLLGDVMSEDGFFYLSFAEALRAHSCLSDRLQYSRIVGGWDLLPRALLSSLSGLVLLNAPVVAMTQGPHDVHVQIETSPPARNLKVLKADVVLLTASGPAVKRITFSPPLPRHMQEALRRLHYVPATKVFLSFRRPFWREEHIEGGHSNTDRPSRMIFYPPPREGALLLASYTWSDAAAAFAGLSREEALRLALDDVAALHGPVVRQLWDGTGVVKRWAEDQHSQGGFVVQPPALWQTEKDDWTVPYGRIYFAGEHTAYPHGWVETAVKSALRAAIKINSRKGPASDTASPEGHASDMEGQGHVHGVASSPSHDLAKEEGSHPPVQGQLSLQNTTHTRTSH
method.description: IL4I1 Enzymatic Assay (Amplex Red/HRP coupled H2O2 detection)
conditions: 1 nM IL4I1, 1 mM each Phe/Tyr/Trp, four-hour pre-incubation, 120 minutes reaction, top compound concentration of 10000 nM
pEC50: −log10 of the molar value.
outcome.measure: pEC50

Enquiry: Supply measured pEC50 of O=c1[nH]c2ccccc2cc1Cc1ccc(C2COCC2O)cc1 (stereo not drawn) in your reply.
Return: 8.14

Enquiry: Supply measured pEC50 of CC(C)(O)c1ccc(Cc2cc3cnccc3[nH]c2=O)cc1Cl in your reply.
Return: 7.82

Enquiry: Supply measured pEC50 of O=c1[nH]c2ccccc2cc1Cc1cc(F)c2c(c1)CNC2 in your reply.
Return: 7.97

====

target.entity: recombinant IL4I1 (Homo sapiens (Human), UniProt Q96RQ9)
method.description: IL4I1 Enzymatic Assay (Amplex Red/HRP coupled H2O2 detection)
conditions: 1 nM IL4I1, 1 mM each Phe/Tyr/Trp, four-hour pre-incubation, 120 minutes reaction, top compound concentration of 10000 nM
outcome.measure: EC50 (nM)

Enquiry: Report value: EC50, system: recombinant IL4I1 (Homo sapiens (Human), UniProt Q96RQ9), compound: CC1CC(=O)NC1c1ccc(Cc2cc3ccccc3[nH]c2=O)cc1 (stereo not shown)
Return: 6.7

Enquiry: Report value: EC50, system: recombinant IL4I1 (Homo sapiens (Human), UniProt Q96RQ9), compound: O=c1[nH]c2ccccc2cc1Cc1nnc(-c2cn[nH]c2)o1
Return: 2.8

Enquiry: Report value: EC50, system: recombinant IL4I1 (Homo sapiens (Human), UniProt Q96RQ9), compound: O=C1COc2c(Cl)cc(Cc3cc4ccccc4[nH]c3=O)cc2N1
Return: 1

Enquiry: Report value: EC50, system: recombinant IL4I1 (Homo sapiens (Human), UniProt Q96RQ9), compound: O=c1[nH]c2ccccc2cc1Cc1nnc(C2CC3(CCC3)C2)o1
Return: 177

Enquiry: Report value: EC50, system: recombinant IL4I1 (Homo sapiens (Human), UniProt Q96RQ9), compound: NS(=O)(=O)Cc1ccc(Cc2cc3ccccc3[nH]c2=O)cc1
Return: 2.2

Enquiry: Report value: EC50, system: recombinant IL4I1 (Homo sapiens (Human), UniProt Q96RQ9), compound: CC(=O)NCc1ccc(Cc2cc3ccccc3[nH]c2=O)cc1C
Return: 3.4

Enquiry: Report value: EC50, system: recombinant IL4I1 (Homo sapiens (Human), UniProt Q96RQ9), compound: CC1(C)CN(c2ccc(Cc3cc4ccccc4[nH]c3=O)cn2)C(=O)O1
Return: 10.7

Enquiry: Report value: EC50, system: recombinant IL4I1 (Homo sapiens (Human), UniProt Q96RQ9), compound: O=c1[nH]c2ccccc2cc1Cc1nnc(-c2ccccc2)o1
Return: 42

[A] O=C1NCc2cc(F)c(Cc3cc4ccccc4[nH]c3=O)cc21
[B] CC(C)(C)n1cc(Cc2cc3ccccc3[nH]c2=O)cn1
[C] COc1ccc2[nH]c(=O)c(Cc3ccccc3)cc2c1
[D] Cn1c(=O)c(CC2CC2c2ccccc2)cc2ccccc21 (stereo not shown)
Enquiry: Place the items in sequence of falling EC50. Please reply with the labels ordered as requested. Many thanks.
Return: C, B, D, A

====

target.entity: recombinant IL4I1 (Homo sapiens (Human), UniProt Q96RQ9)
method.description: IL4I1 Enzymatic Assay (Amplex Red/HRP coupled H2O2 detection)
conditions: 1 nM IL4I1, 1 mM each Phe/Tyr/Trp, four-hour pre-incubation, 120 minutes reaction, top compound concentration of 10000 nM
outcome.measure: EC50 (nM)

Enquiry: Supply measured EC50 of N#Cc1ccc(F)c(-c2nnc(Cc3cc4ccccc4[nH]c3=O)o2)c1 in your reply.
Return: 65.3

Enquiry: Supply measured EC50 of O=c1[nH]c2ccccc2cc1Cc1ccc(N2CCCS2(=O)=O)nc1 in your reply.
Return: 5.9

Enquiry: Supply measured EC50 of O=c1[nH]c2ccccc2cc1Cc1nnc(-c2cccc(C(F)(F)F)c2)o1 in your reply.
Return: 7.6

Enquiry: Supply measured EC50 of O=c1[nH]c2ccccc2cc1Cc1ccc(CC2CNC2)cc1 in your reply.
Return: 10.8

Enquiry: Supply measured EC50 of O=c1[nH]c2ccncc2cc1Cc1cccc(OC(F)(F)F)c1 in your reply.
Return: 2.1

Enquiry: Supply measured EC50 of O=c1[nH]c2ccccc2cc1Cc1cnc(N2CCCCC2)s1 in your reply.
Return: 4.5

Enquiry: Supply measured EC50 of O=c1[nH]c2ccccc2cc1Cc1ccc([C@H]2CCNC2)cc1 [65B] in your reply.
Return: 9

Enquiry: Supply measured EC50 of Cc1nnc(Cc2cc3ccccc3[nH]c2=O)o1 in your reply.
Return: 624

[P] N#CC1(c2ccc(Cc3cc4ccccc4[nH]c3=O)cn2)COC1
[Q] O=C1NCc2ccc(Cc3cc4cnccc4[nH]c3=O)cc21
Enquiry: Please tell me which of the two, P or Q , has the higher reported EC50 value. Your answer should be the label of the entry you select.
Return: Q
(Q: 11.1 nM, P: 5.9 nM)

From: patent US20240287022A1
